Tested on: Proteus vulgaris
experimental-details: MIC in nutrient agar, Proteus vulgaris
Type: cell-based, Proteus vulgaris (ATCC 881)
condition-info: Pv, pH 6.8, 30° C., 48 hours, read-out: Minimum Inhibitory Concentration (MIC)
Measured MIC of individual entries

Known results for compounds:
compound | MIC
N#CSCSc1nsnc1SCSC#N [Example 4] | < 10 µg/mL
N#CSc1nsnc1SC#N [Example 2, Bis(thiocyanato)-1,2,5-thiadiazole] | 25 µg/mL
COc1nsnc1OCSC#N [Example 7] | < 10 µg/mL

MIC recorded for this compound, N#CSCCSc1nsnc1SCCSC#N [Example 5] , is > 500 µg/mL

MIC recorded for this compound, N#CSCSc1nsnc1Cl [Example 3] , is < 10 µg/mL
